Target: human SPR (Homo sapiens (Human))
Assay: Evaluation Example 2: Measurement of human SPR inhibitory activity (seven concentrations, sepiapterin absorbance at 420 nm)
Format: biochemical
Conditions: Evaluation Example 2, seven concentrations 0.14 nM to 100 nM, 240 minutes at room temperature, read-out: IC50
Quick reference: IC50 of the listed items.

>  <MOLECULE>
CC(C)Cn1c(=O)c(C(=O)NC2CC2)c(O)n2ncc(/C=C/C(=O)N3CCC3)c12

>  <UNITS OF MEASURE>
nM

>  <IC50>
0.99

$$$$
>  <MOLECULE>
CC(C)(C)Cn1c(=O)c(C(=O)NC2CC2)c(O)n2nc(-c3c[nH]nc3N)cc12 [Synthesis Example 317]

>  <UNITS OF MEASURE>
nM

>  <IC50>
1.34

$$$$
>  <MOLECULE>
Cc1nn2c(O)c(C(=O)NC3CC3)c(=O)n(CC(C)C)c2c1/C=C/C(=O)N1CCc2cc(C#N)ccc21 [Synthesis Example 669]

>  <UNITS OF MEASURE>
nM

>  <IC50>
1.84

$$$$
>  <MOLECULE>
CCc1nn2c(O)c(C(=O)NC3CC3)c(=O)n(CC(C)C)c2c1/C=C/C(=O)N1[C@@H](C)COC[C@@H]1C [Synthesis Example 626]

>  <UNITS OF MEASURE>
nM

>  <IC50>
0.87

$$$$

###

Target: human SPR (Homo sapiens (Human), UniProt P35270)
Sequence (P35270 whole entry): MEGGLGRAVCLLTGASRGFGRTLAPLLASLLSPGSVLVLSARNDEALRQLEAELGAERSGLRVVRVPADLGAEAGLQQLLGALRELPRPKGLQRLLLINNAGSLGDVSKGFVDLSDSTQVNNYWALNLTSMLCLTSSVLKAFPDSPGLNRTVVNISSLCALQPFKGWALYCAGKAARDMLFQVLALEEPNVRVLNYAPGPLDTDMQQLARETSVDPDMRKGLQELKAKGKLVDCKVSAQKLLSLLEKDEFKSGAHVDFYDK
Experiment: Evaluation Example 2: Measurement of human SPR inhibitory activity (seven concentrations, sepiapterin absorbance at 420 nm)
Type: biochemical
Details: Evaluation Example 2, seven concentrations 0.14 nM to 100 nM, 240 minutes at room temperature, read-out: IC50
Quick reference: IC50 of the listed items.
RESULT TYPE: IC50

>  <MOLECULE>
Cc1nn2c(O)c(C(=O)NC3CC3)c(=O)n(CC(C)C)c2c1/C=C/C(=O)N(C)Cc1ccn(C)n1 [Synthesis Example 639]

>  <VALUE REPORTED>
1.06 nM

$$$$
>  <MOLECULE>
CC(C)Cn1c(=O)c(C(=O)NC2CC2)c(O)n2ncc(/C=C/C(=O)N3[C@H](C)COC[C@H]3C)c12

>  <VALUE REPORTED>
0.62 nM

$$$$
>  <MOLECULE>
CC(C)Cn1c(=O)c(C(=O)NC2CC2)c(O)n2ncc(COc3ccccc3)c12 [Synthesis Example 260]

>  <VALUE REPORTED>
1.27 nM

$$$$
>  <MOLECULE>
Cc1nn2c(O)c(C(=O)NC3CC3)c(=O)n(CC(C)C)c2c1/C=C/C(=O)N1CCOC[C@@H]1C

>  <VALUE REPORTED>
0.68 nM

$$$$

###

Target: human SPR (Homo sapiens (Human))
Assay: Evaluation Example 2: Measurement of human SPR inhibitory activity (seven concentrations, sepiapterin absorbance at 420 nm)
Format: biochemical
Conditions: Evaluation Example 2, seven concentrations 0.14 nM to 100 nM, 240 minutes at room temperature, read-out: IC50
Structures can show the parent of a compound that is named as a salt.
RESULT TYPE: log10 IC50 (log10 of the value in nM)

>  <COMPOUND>
CC(=O)N1CCC2(CCCN2C(=O)/C=C/c2c(C)nn3c(O)c(C(=O)NC4CC4)c(=O)n(CC(C)C)c23)CC1 [Synthesis Example 665]

>  <ASSAY SYSTEM>
human SPR (Homo sapiens (Human))

>  <RESULT TYPE>
log10 IC50

>  <VALUE REPORTED>
-0.04

$$$$
>  <COMPOUND>
Cc1nn2c(O)c(C(=O)NC3CC3)c(=O)n(CC(C)C)c2c1/C=C/C(=O)N1[C@H](C)COC[C@H]1C [compound 576]

>  <ASSAY SYSTEM>
human SPR (Homo sapiens (Human))

>  <RESULT TYPE>
log10 IC50

>  <VALUE REPORTED>
-0.07

$$$$
>  <COMPOUND>
CC(C)Cn1c(=O)c(C(=O)NC2CC2)c(O)n2ncc(/C=C/C(=O)N3CCO[C@H](C(F)(F)F)C3)c12 [compound 530]

>  <ASSAY SYSTEM>
human SPR (Homo sapiens (Human))

>  <RESULT TYPE>
log10 IC50

>  <VALUE REPORTED>
0.06

$$$$
>  <COMPOUND>
COc1cnc(-c2cc3n(CC(C)(C)C)c(=O)c(C(=O)NC4CC4)c(O)n3n2)cn1 [Synthesis Example 300]

>  <ASSAY SYSTEM>
human SPR (Homo sapiens (Human))

>  <RESULT TYPE>
log10 IC50

>  <VALUE REPORTED>
0.97

$$$$
>  <COMPOUND>
CC(C)(C)Cn1c(=O)c(C(=O)NC2CC2)c(O)n2nc(-c3[nH]ncc3C(=O)NCC3CCOCC3)cc12 [Synthesis Example 315, hydrochloride]

>  <ASSAY SYSTEM>
human SPR (Homo sapiens (Human))

>  <RESULT TYPE>
log10 IC50

>  <VALUE REPORTED>
0.05

$$$$
>  <COMPOUND>
CC(C)Cn1c(=O)c(C(=O)NC2CC2)c(O)n2ncc(/C=C/C(=O)N3CCN(C4CC(F)(F)C4)CC3)c12 [compound 460]

>  <ASSAY SYSTEM>
human SPR (Homo sapiens (Human))

>  <RESULT TYPE>
log10 IC50

>  <VALUE REPORTED>
0.09

$$$$
